Listed here: items and their measured IC50.
Molecular target: MAP4K1 (HPK1) (Homo sapiens (Human), UniProt Q92918)
Sequence (Q92918 whole entry): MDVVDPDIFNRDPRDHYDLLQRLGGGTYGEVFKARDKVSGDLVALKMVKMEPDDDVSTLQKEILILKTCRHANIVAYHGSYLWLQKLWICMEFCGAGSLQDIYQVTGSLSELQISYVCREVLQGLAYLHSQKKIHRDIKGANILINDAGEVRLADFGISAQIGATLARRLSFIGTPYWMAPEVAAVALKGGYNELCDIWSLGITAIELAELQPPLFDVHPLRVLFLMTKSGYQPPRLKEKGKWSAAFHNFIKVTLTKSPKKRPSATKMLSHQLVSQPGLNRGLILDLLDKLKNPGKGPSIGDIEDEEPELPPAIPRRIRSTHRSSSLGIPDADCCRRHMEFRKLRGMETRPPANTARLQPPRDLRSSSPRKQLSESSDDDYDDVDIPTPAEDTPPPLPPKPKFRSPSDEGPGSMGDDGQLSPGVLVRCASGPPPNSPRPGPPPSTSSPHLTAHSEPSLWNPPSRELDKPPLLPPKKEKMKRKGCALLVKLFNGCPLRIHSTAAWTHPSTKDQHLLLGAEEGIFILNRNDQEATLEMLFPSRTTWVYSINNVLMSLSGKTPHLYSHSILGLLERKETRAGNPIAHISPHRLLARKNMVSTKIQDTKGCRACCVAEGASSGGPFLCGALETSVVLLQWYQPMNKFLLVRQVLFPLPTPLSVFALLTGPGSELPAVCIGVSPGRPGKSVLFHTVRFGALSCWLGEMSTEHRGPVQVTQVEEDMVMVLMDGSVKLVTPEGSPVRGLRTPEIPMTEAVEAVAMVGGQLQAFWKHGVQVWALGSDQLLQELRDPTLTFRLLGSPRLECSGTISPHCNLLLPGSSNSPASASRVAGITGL
Experiment: MAP4K1 (HPK1) biochemical enzymatic activity, electrophoretic mobility shift (EZReader 2), ATP at APPKM (26 μM)
Settings: class designation

See these solved cases before continuing.
C[C@@H]1OC(=O)c2ccc(Nc3cc4c(C(C)(C)N)cnc(OC5CC5)c4cn3)nc2[C@H]1C: < 0.3 nM
CC(C)(N)c1cnc(OC2CC2)c2cnc(Nc3ccc4c(n3)C3(CC3)COC4=O)cc12: 0.31 to 1 nM
C[C@@H]1OC(=O)c2ccc(Nc3cc4c(C(C)(N)CO)cnc(OC5CC5)c4cn3)nc2[C@H]1C (single isomer, unassigned): 1.1 to 10 nM

Here is the next item to consider.
Enter reported IC50 observed with MAP4K1 (HPK1) (Homo sapiens (Human), UniProt Q92918) for `CC[C@@H](N)c1ccc(Cl)c2cnc(Nc3ccc4c(n3)[C@@H](C)C(C)(C)OC4=O)cc12`
0.31 to 1 nM
